Let's look at some molecules and their measured AC50.
Tested on: SK-MEL-5 TRPM1-promoter luciferase reporter, 24 h
protocol details: reducers of TRPM1 reporter luminescence – cell-based, SK-MEL-5, dry powder samples, set 3, MITF inhibitor project, dose response (AID 624259)
metric name: AC50

{"entry smiles": "COc1ccc(S(=O)(=O)N(C(C)=O)c2ccc(OC(C)=O)c3ccccc23)cc1[N+](=O)[O-]", "target entity": "SK-MEL-5 TRPM1-promoter luciferase reporter, 24 h", "measured result": "11.5 µM"}
{"entry smiles": "COc1ccc(C2=C(NC(=O)c3cccc(Cl)c3)C(=O)c3ccccc3C2=O)cc1", "target entity": "SK-MEL-5 TRPM1-promoter luciferase reporter, 24 h", "measured result": "33.5 µM"}
{"entry smiles": "NC1=C(c2ccccc2)C(=O)c2ccccc2C1=O", "target entity": "SK-MEL-5 TRPM1-promoter luciferase reporter, 24 h", "measured result": "14.5 µM"}
{"entry smiles": "CN1CCN(C2=C(NS(=O)(=O)c3ccc(Br)cc3)C(=O)c3ccccc3C2=O)CC1", "target entity": "SK-MEL-5 TRPM1-promoter luciferase reporter, 24 h", "measured result": "2.07 µM"}
{"entry smiles": "O=C(NC1=C(c2ccccc2)C(=O)c2ccccc2C1=O)c1ccc(Br)cc1", "target entity": "SK-MEL-5 TRPM1-promoter luciferase reporter, 24 h", "measured result": "18.1 µM"}
{"entry smiles": "CCN1CCN(C2=C(NS(=O)(=O)c3ccc(Br)cc3)C(=O)c3ccccc3C2=O)CC1", "target entity": "SK-MEL-5 TRPM1-promoter luciferase reporter, 24 h", "measured result": "12.6 µM"}
